Tested on: Staphylococcus epidermidis
Test name: Antibacterial activity against Staphylococcus epidermidis ATCC 14990 after 18 hrs
Assay type: functional
Study conditions: ATCC 14990, 18 h
Measurement label: MIC (µg/mL)

Recorded MIC, per entry:
Hey, Staphylococcus epidermidis data for O[C@@H]1[C@@H](Oc2cc(Cl)ccc2Oc2ccc(Cl)cc2Cl)OC[C@@H](O)[C@H]1O : MIC came out at 0.5

Hey, Staphylococcus epidermidis data for Oc1cc(Cl)ccc1Oc1ccc(Cl)cc1Cl [TRICLOSAN] : MIC came out at 0.01

[a] OC[C@H]1O[C@@H](Oc2cc(Cl)ccc2Oc2ccc(Cl)cc2Cl)[C@H](O)[C@@H](O)[C@H]1O
[b] OC[C@H]1O[C@H](Oc2cc(Cl)ccc2Oc2ccc(Cl)cc2Cl)[C@H](O)[C@@H](O)[C@@H]1O
Which item exceeds the other in MIC, a or b ? Your answer should be the label attached to the chosen record.
b

###

Test system: Aeromonas hydrophila
Test name: Antibacterial activity against Aeromonas hydrophila OCC 778 after 18 hrs
Assay type: functional
Study conditions: OCC 778, 18 h
Measurement label: MIC (mg/L)

Lab note: OC[C@H]1O[C@@H](Oc2cc(Cl)ccc2Oc2ccc(Cl)cc2Cl)[C@H](O)[C@@H](O)[C@H]1O gave MIC of 256

Lab note: Oc1cc(Cl)ccc1Oc1ccc(Cl)cc1Cl [TRICLOSAN] gave MIC of 8

[a] O[C@@H]1[C@@H](Oc2cc(Cl)ccc2Oc2ccc(Cl)cc2Cl)OC[C@@H](O)[C@H]1O
[b] OC[C@H]1O[C@H](Oc2cc(Cl)ccc2Oc2ccc(Cl)cc2Cl)[C@H](O)[C@@H](O)[C@@H]1O
# min-compare on MIC between a and b Your answer should be the label attached to the chosen record.
a
(a: 128 mg/L, b: 256 mg/L)

###

System: Enterococcus faecium
Test name: Antibacterial activity against Enterococcus faecium ATCC 19434 after 18 hrs
Type: functional
Study conditions: ATCC 19434, 18 h
Measurement label: MIC (µg/mL)

Lab note: OC[C@H]1O[C@H](Oc2cc(Cl)ccc2Oc2ccc(Cl)cc2Cl)[C@H](O)[C@@H](O)[C@@H]1O gave MIC of 256

Lab note: OC[C@H]1O[C@H](Oc2cc(Cl)ccc2Oc2ccc(Cl)cc2Cl)[C@@H](O)[C@@H](O)[C@@H]1O gave MIC of 256

Lab note: O[C@@H]1[C@@H](Oc2cc(Cl)ccc2Oc2ccc(Cl)cc2Cl)OC[C@@H](O)[C@H]1O gave MIC of 256

Lab note: Oc1cc(Cl)ccc1Oc1ccc(Cl)cc1Cl gave MIC of 4

###

Test system: Escherichia coli
Test name: Antibacterial activity against Escherichia coli ATCC 11775 after 18 hrs
Assay type: functional
Measurement label: MIC

Recorded MIC, per entry:
Lab note: OC[C@H]1O[C@H](Oc2cc(Cl)ccc2Oc2ccc(Cl)cc2Cl)[C@@H](O)[C@@H](O)[C@@H]1O gave MIC of 4 to 64 µg/mL

Lab note: OC[C@H]1O[C@@H](Oc2cc(Cl)ccc2Oc2ccc(Cl)cc2Cl)[C@H](O)[C@@H](O)[C@H]1O gave MIC of 0.5 to 32 µg/mL

Lab note: OC[C@H]1O[C@H](Oc2cc(Cl)ccc2Oc2ccc(Cl)cc2Cl)[C@H](O)[C@@H](O)[C@@H]1O gave MIC of 2 to 8 µg/mL

Continuing:
Lab note: OC[C@H]1O[C@H](Oc2cc(Cl)ccc2Oc2ccc(Cl)cc2Cl)[C@H](O)[C@@H](O)[C@H]1O gave MIC of 16 to 64 µg/mL

Reference source for all entries: ChEMBL document CHEMBL4325893
